target: human recombinant renin (Homo sapiens, UniProt P00797); assay: Inhibition of human recombinant renin, enzymatic in vitro assay with Ang I detection by EIA; conditions: human recombinant renin 0.16 ng/mL, synthetic human angiotensin (1-14) 0.5 μM, 37° C. for 3 h; read-out: IC50 (concentration of renin inhibition that inhibited the enzyme activity by 50%)
Sequence (P00797 67-406): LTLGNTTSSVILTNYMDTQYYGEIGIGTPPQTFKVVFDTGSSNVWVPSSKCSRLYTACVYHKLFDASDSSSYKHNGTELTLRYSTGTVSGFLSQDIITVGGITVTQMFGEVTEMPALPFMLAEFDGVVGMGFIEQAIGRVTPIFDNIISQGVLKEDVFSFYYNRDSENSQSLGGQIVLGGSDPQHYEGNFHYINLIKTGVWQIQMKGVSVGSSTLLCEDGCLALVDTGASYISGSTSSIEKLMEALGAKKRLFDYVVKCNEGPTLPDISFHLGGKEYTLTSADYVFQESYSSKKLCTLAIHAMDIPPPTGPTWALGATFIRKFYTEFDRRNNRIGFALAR
QUANTITY MEASURED: IC50 (nM)

Worked cases, IC50 given:
{"MOLECULE": "Cc1c(CN(C(=O)C2=C(c3ccc(CCCOc4c(F)ccc(F)c4Cl)cc3)C[C@@H]3CC[C@H]2N3)C2CC2)ccnc1OCCCO (racemic) [Example 1]", "TEST VALUE": 0.25}
{"MOLECULE": "Cc1c(CN(C(=O)C2=C(c3ccc(CCCOc4c(F)ccc(F)c4Cl)cc3)CC3COCC2N3)C2CC2)ccnc1OCCCO (racemic) [Example 4]", "TEST VALUE": 0.55}
{"MOLECULE": "Cc1c(CN(C(=O)C2=C(c3ccc(CCCOc4c(F)ccc(F)c4Cl)cc3)CC3CS(=O)(=O)CC2N3)C2CC2)ccnc1OCCCO (racemic) [Example 3]", "TEST VALUE": 5.51}
{"MOLECULE": "Cc1c(CN(C(=O)C2=C(c3ccc(CCCOc4c(F)ccc(F)c4Cl)cc3)C[C@@H]3CC[C@H]2N3)C2CC2)ccnc1OCCC(=O)O (racemic) [Example 5]", "TEST VALUE": 3}
{"MOLECULE": "COC(=O)CCOc1nccc(CN(C(=O)C2=C(c3ccc(CCCOc4c(F)ccc(F)c4Cl)cc3)CC3CCC2N3)C2CC2)c1C (racemic) [Example 6]", "TEST VALUE": 6.7}

(1) Cc1c(CN(C(=O)C2=C(c3ccc(CCCOc4c(F)ccc(F)c4Cl)cc3)C[C@@H]3CC[C@H]2N3)C2CC2)ccnc1OCCC(N)=O (racemic) [Example 7]
(2) Cc1cc(Cl)c(OCCOc2ccc(C3=C(C(=O)N(Cc4ccnc(OCCCO)c4C)C4CC4)C4CCC(C3)N4)cc2)c(Cl)c1 (racemic) [Example 2]
Data request: Hello, I am sorting some records. Could you say if 1 or 2 has the smaller IC50 value? Answer = label.
Data returned: 2
(2: 0.18 nM, 1: 3 nM)
